System: SK-MEL-2 melanoma
method: NCI tumour cell line growth inhibition, 48 h
measured endpoint: log10 of TGI (log10 of the value in µM)
Scale type: logarithmic (base 10). Underlying TGI unit: µM.

Below: 6 compounds and their reported log10 of TGI.
O=C1c2ccccc2C(=O)c2c(NCCCNCCO)ccc(NCCCNCCO)c21: 1.25
O=C1c2ccccc2C(=O)c2c1ccc(C(Br)Br)c2[N+](=O)[O-]: 0.61
Cc1ccc2nc3c(C)c(Cl)c(=O)cc-3sc2c1: 1.57
Cl.[Pt].[c-]1ccccc1-c1ccccn1.c1ccc(P(c2ccccc2)C([PH+](c2ccccc2)c2ccccc2)[PH+](c2ccccc2)c2ccccc2)cc1: 0.77
c1ccc2c(CNCCCCCCNCc3cccc4ccccc34)cccc2c1: 0.48
COc1ccc(C2OC(=O)c3c2ccc2ccccc32)c(C)c1 (centres undefined): 0.88

Now, please, on to the next compound.
IN: Check the records and state log10 of TGI for CN(C)CCCNc1nn2c(=O)c3ccccc3nc2c2ccccc12
OUT: 1.64
